Data provenance: patent US5221732A

We begin with a simple list: items and their reported % structure calculated from CD spectra, alpha-helix.
- assay_notes: Circular dichroic measurements
- Format: physicochemical
- experimental_conditions: 50 mM K-phosphate, pH7
Where no end group is shown, it is not given here.
Write the number in % without appending the unit.

substance	readout_number
GIGKFLHSAKKFAKAFVAEIMNS-NH2 [analogue F]	1

## Input Find the recorded % structure calculated from CD spectra, alpha-helix belonging to Ac-GIGKFLHAAKKFAKAFVAEIMNS-NH2 [analogue C] and report it.
## Output 0

## Input Find the recorded % structure calculated from CD spectra, alpha-helix belonging to GIGKFLHSAGKFGKAFVGEIMKS [Magainin 1, reference compound] and report it.
## Output 0

## Input Find the recorded % structure calculated from CD spectra, alpha-helix belonging to GIGKFLHAAKKFAKAFVAEIMNS-NH2 [analogue B] and report it.
## Output 2
